Experiment: Tissue distribution of SHR9146 in mice after oral gavage of 40 mg/kg
Type: in vivo, ICR mice
Details: male, ICR, mouse, plasma, po, 40 mg/kg, male, 6 h, 40 mg/kg oral gavage, individual mice; read-out: SHR9146 concentration in Plasma
Metric: concentration at 6 h (ng/mL)
Use ng/mL as the unit, but write only the number.

-- ask Which concentration at 6 h is listed for OCCn1cc(-c2ccc(N3CCC([C@H]4c5c(F)cccc5-c5cncn54)CC3)cc2)cn1 [SHR9146] ?
-- reply 53

----------
Assay: Plasma pharmacokinetics of SHR9146 in mice (LC-MS/MS, non-compartmental analysis)
Assay type: in vivo, ICR mice
Details: both sexes, ICR, mouse, plasma, oral, 20 mg/kg, 20 mg/kg i.g. bid, 7 days; 7th day, 0.25 h; read-out: plasma drug concentration, individual mice #1-#6
Protocol: ICR mice with body weight 16–26 g were supplied by Shanghai Lingchang Biotechnology Co., Ltd. (animal breeding license number SCXK (Shanghai) 2013-0018) and housed at Shanghai Institute of Materia Medica, Chinese Academy of Sciences [animal use license number SYXK (Shanghai) 2015-0027]. The mice used in this study were fasted overnight for 12 h but had free access to water. Food was supplied 4 h post-dose. […]
Metric: concentration at 0.25 h (ng/mL)
State the answer as a number, implicitly in ng/mL.

-- ask # get_value(readout='concentration at 0.25 h', item= "OCCn1cc(-c2ccc(N3CCC([C@H]4c5c(F)cccc5-c5cncn54)CC3)cc2)cn1" )
-- reply 4300

----------
Test: Tissue distribution of SHR9146 in mice after oral gavage of 40 mg/kg
Assay type: in vivo, ICR mice
Details: male, ICR, mouse, spleen, po, 40 mg/kg, male, 3 h, 40 mg/kg oral gavage, Mean (n=3); read-out: SHR9146 concentration in Spleen
Metric: concentration at 3 h
Give the figure together with its unit, number first.

-- ask So what does the record say about concentration at 3 h for OCCn1cc(-c2ccc(N3CCC([C@H]4c5c(F)cccc5-c5cncn54)CC3)cc2)cn1 [SHR9146] ?
-- reply 1700 ng/g

----------
Assay: Tissue distribution of SHR9146 in mice after oral gavage of 40 mg/kg
Format: in vivo, ICR mice
Conditions: female, ICR, mouse, skeletal muscle, po, 40 mg/kg, female, 6 h, 40 mg/kg oral gavage, Mean (n=3); read-out: SHR9146 concentration in Skeletal muscle
Metric: concentration at 6 h (ng/g)
The figure you give is taken to be in ng/g; do not add the unit.

-- ask Requested read-out: concentration at 6 h. Entry: OCCn1cc(-c2ccc(N3CCC([C@H]4c5c(F)cccc5-c5cncn54)CC3)cc2)cn1 [SHR9146]
-- reply 294

----------
Experiment: Tissue distribution of SHR9146 in mice after oral gavage of 40 mg/kg
Format: in vivo, ICR mice
Settings: male, ICR, mouse, kidney, po, 40 mg/kg, male, 6 h, 40 mg/kg oral gavage, Mean (n=3); read-out: SHR9146 concentration in Kidney
Metric: concentration at 6 h
# output: number + unit

-- ask Value lookup for concentration at 6 h; key = "OCCn1cc(-c2ccc(N3CCC([C@H]4c5c(F)cccc5-c5cncn54)CC3)cc2)cn1"
-- reply 210 ng/g

----------
Test: Tissue distribution of SHR9146 in mice after oral gavage of 40 mg/kg
Format: in vivo, ICR mice
Settings: female, ICR, mouse, thyroid gland, po, 40 mg/kg, female, 1 h, 40 mg/kg oral gavage, Mean (n=3); read-out: SHR9146 concentration in thyroid gland
Metric: concentration at 1 h (ng/g)
Hi! Could you send only the number? It should be in ng/g, unit omitted.

-- ask Could you share which concentration at 1 h value was measured for "OCCn1cc(-c2ccc(N3CCC([C@H]4c5c(F)cccc5-c5cncn54)CC3)cc2)cn1" ?
-- reply 9550

----------
Test: Tissue distribution of SHR9146 in mice after oral gavage of 40 mg/kg
Type: in vivo, ICR mice
Conditions: male, ICR, mouse, pancreas, po, 40 mg/kg, male, 1 h, 40 mg/kg oral gavage, Mean (n=3); read-out: SHR9146 concentration in Pancreas
Metric: concentration at 1 h (ng/g)
Please reply with the bare figure in ng/g and do not write the unit itself.

-- ask Suppose we examine the compound OCCn1cc(-c2ccc(N3CCC([C@H]4c5c(F)cccc5-c5cncn54)CC3)cc2)cn1 [SHR9146] ; what concentration at 1 h value has been reported?
-- reply 12600

----------
Assay: Tissue distribution of SHR9146 in mice after oral gavage of 40 mg/kg
Format: in vivo, ICR mice
Settings: female, ICR, mouse, pancreas, po, 40 mg/kg, female, 1 h, 40 mg/kg oral gavage, individual mice; read-out: SHR9146 concentration in Pancreas
Metric: concentration at 1 h

-- ask For the compound shown here, "OCCn1cc(-c2ccc(N3CCC([C@H]4c5c(F)cccc5-c5cncn54)CC3)cc2)cn1" , give the reported concentration at 1 h.
-- reply 15900 ng/g

----------
Test: Plasma pharmacokinetics of SHR9146 in mice (LC-MS/MS, non-compartmental analysis)
Assay type: in vivo, ICR mice
Settings: both sexes, ICR, mouse, plasma, intravenous, 5 mg/kg, 5 mg/kg i.v.; 0.25 h; read-out: plasma drug concentration, individual mice #1-#6
Description: ICR mice with body weight 16–26 g were supplied by Shanghai Lingchang Biotechnology Co., Ltd. (animal breeding license number SCXK (Shanghai) 2013-0018) and housed at Shanghai Institute of Materia Medica, Chinese Academy of Sciences [animal use license number SYXK (Shanghai) 2015-0027]. The mice used in this study were fasted overnight for 12 h but had free access to water. Food was supplied 4 h post-dose. […]
Metric: concentration at 0.25 h
The answer consists of two parts: a number and, after it, its unit.

-- ask Endpoint output: concentration at 0.25 h of "OCCn1cc(-c2ccc(N3CCC([C@H]4c5c(F)cccc5-c5cncn54)CC3)cc2)cn1" . Value?
-- reply 5210 ng/mL

----------
Assay: Tissue distribution of SHR9146 in mice after oral gavage of 40 mg/kg
Type: in vivo, ICR mice
Conditions: male, ICR, mouse, heart, po, 40 mg/kg, male, 3 h, 40 mg/kg oral gavage, Mean (n=3); read-out: SHR9146 concentration in Heart
Metric: concentration at 3 h (ng/g)
Express it in ng/g; write the number only.

-- ask What does the data say about its concentration at 3 h? Entry: "OCCn1cc(-c2ccc(N3CCC([C@H]4c5c(F)cccc5-c5cncn54)CC3)cc2)cn1"
-- reply 2660

----------
Test: Plasma pharmacokinetics of SHR9146 in mice (LC-MS/MS, non-compartmental analysis)
Format: in vivo, ICR mice
Conditions: female, ICR, mouse, plasma, po, 40 mg/kg, 40 mg/kg i.g. single dose; female mice; plasma; read-out: AUC0-t
Experimental: ICR mice with body weight 16–26 g were supplied by Shanghai Lingchang Biotechnology Co., Ltd. (animal breeding license number SCXK (Shanghai) 2013-0018) and housed at Shanghai Institute of Materia Medica, Chinese Academy of Sciences [animal use license number SYXK (Shanghai) 2015-0027]. The mice used in this study were fasted overnight for 12 h but had free access to water. Food was supplied 4 h post-dose. […]
Metric: AUC(0-t) (ng·h/mL)
Express the result in ng·h/mL but write the number alone.

-- ask Can you share its AUC(0-t)? I mean this compound: "OCCn1cc(-c2ccc(N3CCC([C@H]4c5c(F)cccc5-c5cncn54)CC3)cc2)cn1"
-- reply 12400

----------
Experiment: Plasma pharmacokinetics of SHR9146 in mice (LC-MS/MS, non-compartmental analysis)
Type: in vivo, ICR mice
Settings: both sexes, ICR, mouse, plasma, po, 80 mg/kg, 80 mg/kg i.g. single dose; all mice (Totol, 3 male + 3 female); plasma; read-out: AUC0-t
Metric: AUC(0-t) (ng·h/mL)
Provide the reading as a plain figure in ng·h/mL.

-- ask Fill in: AUC(0-t) of "OCCn1cc(-c2ccc(N3CCC([C@H]4c5c(F)cccc5-c5cncn54)CC3)cc2)cn1" is ___
-- reply 70000

----------
Test: Plasma pharmacokinetics of SHR9146 in mice (LC-MS/MS, non-compartmental analysis)
Type: in vivo, ICR mice
Details: both sexes, ICR, mouse, plasma, oral, 20 mg/kg, 20 mg/kg i.g. bid, 7 days; 7th day, 0.25 h; read-out: plasma drug concentration, mean (n=6)
Metric: concentration at 0.25 h (ng/mL)
Report the value in ng/mL with no unit label.

-- ask Quick check: concentration at 0.25 h of OCCn1cc(-c2ccc(N3CCC([C@H]4c5c(F)cccc5-c5cncn54)CC3)cc2)cn1 [SHR9146] ?
-- reply 5710

----------
Assay: Plasma pharmacokinetics of SHR9146 in mice (LC-MS/MS, non-compartmental analysis)
Assay type: in vivo, ICR mice
Details: both sexes, ICR, mouse, plasma, oral, 20 mg/kg, 20 mg/kg i.g. single; 8 h; read-out: plasma drug concentration, individual mice #1-#6
Metric: concentration at 8 h (ng/mL)
Enter your answer as a number in ng/mL; do not include the unit.

-- ask Which concentration at 8 h value is on record for OCCn1cc(-c2ccc(N3CCC([C@H]4c5c(F)cccc5-c5cncn54)CC3)cc2)cn1 [SHR9146] ?
-- reply 194
